value kind: melting point

compound	melting point
O=C1N=C2SCCN2C1(Cc1ccccc1)Cc1ccccc1 [compound 9]	233 to 236 °C
O=C1N=C2SC=CN2C1(Cc1ccccc1)Cc1ccccc1 [compound 2]	> 300 °C
O=C1N=C2N=CC=CN2C1(Cc1ccccc1)Cc1ccccc1 [compound 3]	> 300 °C
O=C1N=C2CCCCN2C1(C1CCCCC1)C1CCCCC1 [compound 12]	218 to 220 °C
O=C1N=C2N=CC=CN2C1(Cc1cccs1)Cc1cccs1 [compound 8]	192 °C (dec.)
O=C1N=C2C=CC=CN2C1Cc1ccccc1 (stereo not drawn) [compound 14, 3-benzylimidazo[1,2-a]pyridin-2(3H)-one]	182 °C (dec.)

Query block: What value of measured melting point is listed for N#Cc1ccc(CC2(Cc3ccc(C#N)cc3)C(=O)N=C3SC=CN32)cc1 [compound 5] ?
Result block: 264 to 267 °C

Query block: Field entry: Cc1ccc(CC2(Cc3ccc(C)cc3)C(=O)N=C3SC=CN32)cc1 [compound 4]
Result block: > 300 °C
